assay: Particle size and polydispersity index of nanoparticle compositions (Zetasizer Nano ZS); assay type: physicochemical; conditions: Table 1A; lipid:DSPC:cholesterol:PEG-DMG 50:10:38.5:1.5 mol %
For each record, check the reported Size (nm): if it is below 100 nm write 1.0, else write 0.0.

[[record]]
molecule = "CCCCCCCCCOC(=O)CCCCCCCN(CCCCCCCC(=O)OC(CCCCCCCC)CCCCCCCC)CCCN(C)S(C)(=O)=O [Compound 173]"
group = 1.0

[[record]]
molecule = "CCCCCCCCCOC(=O)CCCCCCCN(CCCCO)CCCCCCCC(=O)OC(CCCCCCCC)CCCCCCCC [Compound 20]"
group = 1.0

[[record]]
molecule = "CCCCCCCCCOC(=O)CCCN(C)CCCCCCCC(=O)OC(CCCCCCCC)CCCCCCCC [Compound 126]"
group = 1.0

[[record]]
molecule = "CCCCCCCCCOC(=O)CCCCCCCN(CCO)CCCCCCCC(=O)OCCCCCCCCC [Compound 138]"
group = 0.0

[[record]]
molecule = "CCCCCCCCC(C)OC(=O)CCCCCCCN(CCO)CCCCCCCC(=O)N(CCCCCCCC)CCCCCCCC (centres unmarked) [Compound 130]"
group = 0.0

[[record]]
molecule = "CCCCCCCCC(CCCCCCCC)OC(=O)CCCCCCCN(CCO)CCCC(=O)OCCCCCC [Compound 53]"
group = 0.0

